tested_on: Corticotropin-releasing factor receptor 1 (Rattus norvegicus)
Sequence (P35353 whole entry): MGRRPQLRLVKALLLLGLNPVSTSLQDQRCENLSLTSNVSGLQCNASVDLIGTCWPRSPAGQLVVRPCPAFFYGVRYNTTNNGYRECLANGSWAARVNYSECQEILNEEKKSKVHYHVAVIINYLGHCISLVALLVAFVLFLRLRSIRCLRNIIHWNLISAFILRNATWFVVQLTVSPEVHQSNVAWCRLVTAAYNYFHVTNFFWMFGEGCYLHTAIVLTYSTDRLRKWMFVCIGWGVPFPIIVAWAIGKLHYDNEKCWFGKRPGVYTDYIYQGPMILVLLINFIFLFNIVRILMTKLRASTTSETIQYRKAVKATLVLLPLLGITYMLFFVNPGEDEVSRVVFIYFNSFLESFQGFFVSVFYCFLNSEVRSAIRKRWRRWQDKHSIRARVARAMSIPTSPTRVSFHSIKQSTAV
pIC50: −log10 of the molar value.
Response key: class 1 means pIC50 >= 8; class 0 means pIC50 < 8.

molecule: COCC(C1CC1)n1nc(C)nc(Nc2cc(C)c(OC)nc2C)c1=O (stereo unspecified)
label: class 0
//
molecule: CCC(C1CC1)n1nc(C)nc(Nc2ccc(OC)nc2C(F)(F)F)c1=O (stereo unspecified)
label: class 1
//
molecule: COCC(C1CC1)n1nc(C)nc(Nc2c(C)cc(OC)cc2C)c1=O (stereo unspecified)
label: class 0
//
molecule: Cc1nc(Nc2c(Cl)cc(OC(F)(F)F)cc2Cl)c(=O)n(C(C)C2CC2)n1 (stereo unspecified)
label: class 0
